# ASSAY_METHOD_TEXT: protein stability index of a GFP-peptide fusion (yeast GPS) (PSI 1-4); higher = more stable; sorted into four equal gates, so the index is relative within each strain
# TEST_PARAMETERS: ubr1∆
OUTCOME_MEASURE: protein stability index
Give bare numbers.

Would you please look over these solved cases?
KEQADIYAKQQEQLKQM [ARP7] : 2.88
SILDDIKLSLKDKTKNI [SMC4] : 3
GINNLSEIWDVSRGQSA [PRP8] : 2.26
SPVQIAFNRFMAESLVD [SSN8] : 1.52
YEKAQKDLENAQVEMKS [SMC1] : 3.3
GNASLKYIALQVIVDIF [YCG1] : 1.54

Field: protein stability index. Fill in for each record below.
1. NEETFTVPELEIPTQIY [ARP9]
2. ASITPYKLVNKNKENNT [RPN4]
3. TIISPHKDIPEEDFYTV [DSN1]
4. AFGLGAIMSKSSLEELL [ECM29]
5. EDAKLKTDLELLVERLK [RPN1]

Out:
2.92
2.11
3.19
2.06
1.51

Field: protein stability index. Fill in for each record below.
1. GNDNNSDSNANAAVAGV [SWI3]
2. AKEELNGLKDQLNEERS [YIL149C/MLP2]
3. PGHVNFMDETAVALAAS [SNU114]
4. LSIQYMIQKVMEYLKSS [RPN5]

Out:
[3.18, 3.41, 2.34, 1.69]
